Procedure summary: chemical genetic growth profiling, strain panel (AID 1159580);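 further: tested at 20 µM; growth read once vehicle control cultures reached saturation at 30 °C; 1 = growth at the plate median or of vehicle wells; lower values mean less growth of the strain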
Experimental context: S. cerevisiae deletion strains, growth OD, locus YIL073C, strain SPO22, active compounds read low
In all, about 5,500 compounds went through this assay and about 2,000 (36%) were called active. Roughly 18% stayed inconclusive and do not appear here. The list shows a part of the results.
Quantity name: normalized growth

Compound	Obs value
CC(=O)O[C@H]1C[C@@H](OC(C)=O)C(C)(C)C2C[C@@H](OC(C)=O)[C@@]3(C)C4=CC(=O)O[C@@H](c5ccoc5)[C@]4(C)CCC3[C@]21C (some centres undefined)	1.03
O=C(O[C@@H]1Cc2c(O)cc(O)cc2O[C@@H]1c1cc(O)c(O)c(O)c1-c1c([C@H]2Oc3cc(O)cc(O)c3C[C@H]2O)cc(O)c(O)c1O)c1cc(O)c(O)c(O)c1	0.15
C=C[C@@H](C1=CC(=O)C(OC)=C(OC)C1=O)c1ccccc1	0.341
C=CC(C1=CC(=O)C=CC1=O)c1ccccc1 (centres undefined)	0.916
COc1cc(OC)c2c(=O)c(-c3ccccc3)c(C)oc2c1OC	0.999
CC(=O)Nc1ccc(S(=O)(=O)Nc2ccc([N+](=O)[O-])cc2)cc1	1.05
c1ccc2c3c([nH]c2c1)CNCC3	1.05
C=CC(C1=CC(=O)C(OC)=CC1=O)c1ccc(O)cc1 (centres undefined)	0.964
CC(=O)OCC1(C)CCC2(C)CCC3(C)C4=CCc5c(cc(OC(C)=O)c(OC(C)=O)c5C)C4(C)CCC3(C)C2C1 (centres undefined)	1.02

###

Procedure summary: chemical genetic growth profiling, strain panel (AID 1159580);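 further: tested at 20 µM; growth read once vehicle control cultures reached saturation at 30 °C; 1 = growth at the plate median or of vehicle wells; lower values mean less growth of the strain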
Experimental context: S. cerevisiae deletion strains, growth OD, locus YBR021W, strain FUR4, active compounds read low
Among all 5,500 compounds or so, about 2,000 (36%) were called active. Inconclusive results (about 18%) are left out. The list shows a part of the results.
List of normalized growth values.

Compound	normalized growth
Oc1c(I)cc(I)c2cccnc12	0.129
O=C(CCCCCCCCCCCCC1CCCC1)Nc1ccc(S(=O)(=O)c2ccc(NC(=O)CCCCCCCCCCCCC3CCCC3)cc2)cc1	1.04
C1CCN2CC3CC(CN4CCCCC34)C2C1 (stereo unspecified)	1
CCCC1O[C@@H]2CC3C4CCC5=CC(=O)C=CC5(C)C4[C@@H](O)CC3(C)[C@]2(C(=O)CO)O1 (stereo partly specified)	1
CCCCC(CC)CN1CN(CC(CC)CCCC)CC(C)(N)C1 (stereo unspecified)	0.168
C=CC(C1=CC(=O)C=CC1=O)c1ccccc1 (stereo unspecified)	0.982
Nc1ncnc2c1ncn2C1C[C@H](O)[C@@H](CO)O1 (stereo partly specified)	1.02
Nc1nc2c(ncn2C2C[C@H](O)[C@@H](CO)O2)c(=O)[nH]1 (stereo partly specified)	1
COC(=O)C[C@H]1C(C)(C)C(=O)[C@@H]2CC3=C4CC(=O)O[C@@H](c5ccoc5)[C@]4(C)CCC3[C@@]1(C)C2=O (stereo partly specified)	0.986
O=C1CCCC2C3CC(CN12)[C@@H]1CCCCN1C3 (stereo partly specified)	1.04
O=C(O)c1cccnc1Nc1cccc(C(F)(F)F)c1	0.922
C=CC(C1=CC(=O)C(OC)=CC1=O)c1ccc(OC)cc1 (stereo unspecified)	0.957
C=C[C@@H](C1=CC(=O)C(OC)=C(OC)C1=O)c1ccccc1	0.516
Cc1ccc2cc3c(ccc4ccccc43)c3c2c1CC3	0.988
C1CNCCN1	0.979
Nc1ncnc2c1ncn2C1O[C@H](COP(=O)(O)O)[C@@H](O)[C@H]1O (stereo partly specified)	1.01
